Target: T1, LRRC7, Q96NW7
T1 sequence (Q96NW7 1440-1537, limits assumed, looked up): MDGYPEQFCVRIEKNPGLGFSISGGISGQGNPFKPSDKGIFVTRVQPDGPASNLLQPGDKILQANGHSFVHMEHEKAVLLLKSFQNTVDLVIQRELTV
Assay: holdup assay
Set-up: key: below the threshold = too weak to quantify, mostly under pKd 3.1 to 4
Conditions: plain residues with an end cap or a label only (N-terminal biotin on a linker: ado-ado)

>  <BINDER>
TKGPRGPTRV [SAPCD1, Q5SSQ6]

>  <pKd>
below the threshold

$$$$
>  <BINDER>
QPCFNKLFPL [LPXN, O60711]

>  <pKd>
below the threshold

$$$$
>  <BINDER>
VNKSKLLTDV [KCNA1, Q09470]

>  <pKd>
below the threshold

$$$$
>  <BINDER>
TSQESEDTYL [TBC1D10A, Q9BXI6]

>  <pKd>
3.85

$$$$
